target_desc: T1, human transferrin receptor 1 (human, UniProt P02786 89-760, limits assumed)
T1 construct: also called hTfR1; huTfR1
assay_summary: average KD, antibody alone; method not given
observable: pKd
Give bare numbers, as −log10 of the molar value.

Known pKd results, listed for orientation:
binder | pKd
4-C5 (antibody, V domains shown, Tested as a mouse monoclonal IgG; also called 4-C05) VH: QVQLQQSGAELMKPGASVKISCKATGYTFSNYWIEWVKQRPGHGLEWIGEILPGSGSTNYNENFKGKATFTADTSSNTAYMQLSSLTSEDSAVYYCARRGAYGNFHYWGQGTTLTVSS VL: EIVLTQSPALMAASPGEKVTITCSVSSSISSSNLHWYQQKSETSPKPWIYGTSNLASGVPVRFSGSGSGTSYSLTISSMEAEDAATYYCQQWRSYPYTFGGGTKLEIK | 8.86
2-H19 (antibody, V domains shown, Tested as a mouse monoclonal IgG) VH: EVQLQQSGAELVRSGASVKLSCTASGFNIKDYYMHWVKQRPEQGLEWIGWIDPESGDTEYAPKFQGRATMTADTSSNTAYMQLSSLTSEDTAVYYCYGHDYRVDCWGQGTSVTVSS VL: DVVMTQTPLSLPVSLGDQASISCRSSQSLVHSNGNTYLHWYLQKPGQSPKLLIYKVSNRFSGVPDRFSGSGSGTDFTLKISRVEAEDLGVYFCSQSTHIPWTFGGGTKLEIK | 8.69
3-M12 (antibody, V domains shown, Tested as a mouse monoclonal IgG) VH: DVQLQESGPGLVKPSQSLSLTCSVTGYSITSGYYWNWIRQFPGNKLEWMGYITFDGANNYNPSLKNRISITRDTSKNQFFLKLTSVTTEDTATYYCTRSSYDYDVLDYWGQGTTLTVSS VL: DIQMTQTTSSLSASLGDRVTISCRASQDISNFLNWYQQRPDGTVKLLIYYTSRLHSGVPSRFSGSGSGTDFSLTVSNLEQEDIATYFCQQGHTLPYTFGGGTKLEIK | 9.11
Anti-TfR antibody 15G11 (antibody, V domains shown, Known control antibody; It was captured as an IgG on the Carterra chip; also called ctrl-15G11; 15G11 (control)) VH: QVQLQQPGAELVKPGASVKLSCKASGYTFTSYWMHWVKQRPGQGLEWIGEINPTNGRTNYIEKFKSKATLTVDKSSSTAYMQLSSLTSEDSAVYYCARGTRAYHYWGQGTSVTVSS VL: DIQMTQSPASLSVSVGETVTITCRASDNLYSNLAWYQQKQGKSPQLLVYDATNLADGVPSRFSGSGSGTQYSLKINSLQSEDFGTYYCQHFWGTPLTFGAGTKLELK | 9.10
4-J22 (antibody, V domains shown, Tested as a mouse monoclonal IgG) VH: EVQLQQSGAELVRSGASVKLSCTASGFNIKDYYIHWVKQRPEQGLEWIGWIDPENADTEYAPKFQGKATMTPDTSSNTAYLQLSSLTSEDTAVYYCYAWDYSMDYWGQGTSVTVSS VL: DVVMTQTPLSLSVSLGDQASISCRSSQSLVHSNGNTYLHWYLQKPGQSPKLLIYKVSNRFSGVPDRFSGSGSGTDFILKISRVEAEDLGVYFCSQNTHVPYTFGGGTRLEIK | 8.47

List pKd for every entry below, keeping the order given.
1. 3-A4 (antibody, V domains shown, Tested as a mouse monoclonal IgG; also called 3-A04) VH: EVQLQQSGAELVRPGASVKLSCTASGFNIKDDYMYWVKQRPEQGLEWIGWIDPENGDTEYASKFQDKATVTADTSSNTAYLQLSSLTSEDTAVYYCTLWLRRGLDYWGQGTSVTVSS VL: DIVMTQAAPSVPVTPGESVSISCRSSKSLLHSNGYTYLFWFLQRPGQSPQLLIYRMSNLASGVPDRFSGSGSGTAFTLRISRVEAEDVGVYYCMQHLEYPFTFGGGTKLEIK
2. 8-O17 (antibody, V domains shown, Tested as a mouse monoclonal IgG) VH: QVQLKESGPGLVAPSQSLSITCTVSGFSLTNYGVHWVRQPPGKGLEWLVVIWNDGSATYNSALESRLSISKDNSKSQVFLKMNSLQTDDTAMYYCARHESSNPFAYWGQGTLVTVSA VL: DILLTQSPAILSVSPGERVSFSCRASQSIGTSIHWYQQRTNGSPRLLIKSASESIAGIPSRFSGSGSGTDFTLSINSVESEDIADYYCQQNNRWPYTFGGGTKLEIK

1. 9.36
2. 8.65

List pKd for every entry below, keeping the order given.
1. 8-D15 (antibody, V domains shown, Tested as a mouse monoclonal IgG) VH: QVQLKESGPGLVAPSQSLSITCTVSGFSLTSYAITWVRQSPGKGLEWLGLIWTGGGTNYNSALKSRLSISKDNSKSQVFLKMNSLQTDDTARYYCARIYDGYYRYFDVWGTGTTVTVSS VL: RIVLTQTPKFLLVSAGDRVTMTCKASQSVSNDVAWYQQKPGQSPKLLIYYASNRYTGVPDRFTGSGYGTDFTFTISTVQAEDLAVYFCQQDYSSPWTFGGGTKLEIK
2. 10-H2 (antibody, V domains shown, Tested as a mouse monoclonal IgG; also called 10-H02) VH: EVQLVESGGDLVKPGGSLKLSCAASGFTFSDYGMHWVRQGPEKGLEWVAYINSGSSTIYYADTVKGRFTISRDNAKNTLFLQMTSLRSEDTAMYYCARPGDYDNYAMDYWGQGTSVTVSS VL: DIVMTQSHKFLSTSVGDRVSITCKASQDVSVAVAWYQQKPGQSPKLLIYWAYTRHTGVPDRFTGSGSGTEYTLTISSVQAEDLALYYCQQHYNTPPWTFGGGTKLEIK
3. 3-E5 (antibody, V domains shown, Tested as a mouse monoclonal IgG; also called 3-E05) VH: EIQMKQSGAELVKPGASVKISCKASGYSFTGYNMNWVKQSHGKSLEWIGNINPYYGSTGYNQKFKGKATLTVDKSSSTAYMQLNSLTSEDSAVYYCARGDYGYDEGTWFAYWGQGTLVTVSA VL: DIVMSQSPSSLAVSAGEKVTMSCKSSQSLLNSRTRKNYLAWYQQKPEQSPKLLIYWASTRESGVPDRFTGSGSGTDFTLTISSVQAEDLAVYYCKQSYNLPFTFGSGTKLEIK

1. 8.04
2. 8.57
3. 9.34
